molecular target: Protein cereblon/Epidermal growth factor receptor (Homo sapiens, UniProt P00533+Q96SW2, T790M/C797S/L858R); assay: PROTAC activity at CRBN/EGFR L858R/T790M/C797S mutant in human H1975-TM cells assessed as induction of EGFR degradation incubated for 24 hrs by Western blot analysis; assay type: cell-based
Sequence (P00533 25-1210 T790M/C797S/L858R limits assumed, stated change not applied): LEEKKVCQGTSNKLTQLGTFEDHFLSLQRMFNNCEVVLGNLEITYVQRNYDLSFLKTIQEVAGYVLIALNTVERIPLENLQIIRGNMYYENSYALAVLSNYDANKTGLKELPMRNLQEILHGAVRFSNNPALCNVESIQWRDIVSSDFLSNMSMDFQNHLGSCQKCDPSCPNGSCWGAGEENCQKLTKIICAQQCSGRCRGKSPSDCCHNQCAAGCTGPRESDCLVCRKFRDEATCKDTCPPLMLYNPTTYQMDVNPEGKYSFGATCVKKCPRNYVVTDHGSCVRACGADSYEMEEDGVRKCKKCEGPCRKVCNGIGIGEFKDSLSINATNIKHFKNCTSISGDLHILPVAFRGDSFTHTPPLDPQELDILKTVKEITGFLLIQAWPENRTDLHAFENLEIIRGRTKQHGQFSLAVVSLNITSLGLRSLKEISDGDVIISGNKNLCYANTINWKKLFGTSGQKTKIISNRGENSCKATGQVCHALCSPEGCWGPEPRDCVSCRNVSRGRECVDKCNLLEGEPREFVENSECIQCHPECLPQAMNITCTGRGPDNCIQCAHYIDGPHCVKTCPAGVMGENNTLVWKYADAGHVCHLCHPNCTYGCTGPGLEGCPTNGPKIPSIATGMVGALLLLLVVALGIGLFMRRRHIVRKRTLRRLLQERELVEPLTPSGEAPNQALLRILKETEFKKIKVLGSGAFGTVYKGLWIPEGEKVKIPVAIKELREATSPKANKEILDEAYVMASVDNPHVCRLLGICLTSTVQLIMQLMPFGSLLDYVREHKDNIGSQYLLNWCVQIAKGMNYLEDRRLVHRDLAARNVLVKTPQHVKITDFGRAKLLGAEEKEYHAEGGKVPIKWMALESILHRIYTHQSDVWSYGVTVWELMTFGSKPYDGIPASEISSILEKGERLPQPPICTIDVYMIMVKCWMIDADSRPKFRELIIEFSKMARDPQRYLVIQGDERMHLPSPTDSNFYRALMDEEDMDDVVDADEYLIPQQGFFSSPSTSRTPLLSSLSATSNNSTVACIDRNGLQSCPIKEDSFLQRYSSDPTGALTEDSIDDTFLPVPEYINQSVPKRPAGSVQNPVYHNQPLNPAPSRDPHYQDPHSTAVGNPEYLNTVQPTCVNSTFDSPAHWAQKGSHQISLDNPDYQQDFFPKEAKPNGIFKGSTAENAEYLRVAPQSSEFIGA
Sequence (Q96SW2 whole entry, stated change not applied): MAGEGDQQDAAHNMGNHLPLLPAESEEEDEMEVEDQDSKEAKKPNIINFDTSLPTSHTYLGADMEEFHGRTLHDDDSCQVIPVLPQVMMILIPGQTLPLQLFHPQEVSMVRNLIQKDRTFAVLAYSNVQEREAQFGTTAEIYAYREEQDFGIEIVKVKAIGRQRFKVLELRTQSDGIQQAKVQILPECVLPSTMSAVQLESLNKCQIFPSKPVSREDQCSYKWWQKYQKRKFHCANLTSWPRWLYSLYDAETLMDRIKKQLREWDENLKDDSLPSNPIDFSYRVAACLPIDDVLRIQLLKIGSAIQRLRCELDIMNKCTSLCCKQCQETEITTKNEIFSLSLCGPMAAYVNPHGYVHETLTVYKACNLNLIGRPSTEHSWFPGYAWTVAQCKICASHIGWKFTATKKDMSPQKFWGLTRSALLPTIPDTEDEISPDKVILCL
Value kind: DC50 (nM)
Answers are plain numbers, in nM.

Sample records with DC50:
Give its DC50 value. Item: CCS(=O)(=O)n1cc(-c2nc(Nc3ccc(N4CCN(C(=O)CCCC(=O)Nc5cccc6c5CN(C5CCC(=O)NC5=O)C6=O)CC4)cc3)ncc2C(F)(F)F)c2ccccc21 (centres undefined)
153

Need DC50, item CCS(=O)(=O)n1cc(-c2nc(Nc3ccc(N4CCN(C(=O)CCC(=O)Nc5cccc6c5CN(C5CCC(=O)NC5=O)C6=O)CC4)cc3)ncc2C(F)(F)F)c2ccccc21 (centres undefined)
180

Given the molecule CCS(=O)(=O)n1cc(-c2nc(Nc3ccc(N4CCN(CCCCCCC(=O)Nc5cccc6c5CN(C5CCC(=O)NC5=O)C6=O)CC4)cc3)ncc2C(F)(F)F)c2ccccc21 (centres undefined) , what is its reported DC50?
10.2

Below: the item to evaluate.
Suppose we examine the molecule CCS(=O)(=O)n1cc(-c2nc(Nc3ccc(N4CCN(CCCCCCCCCC(=O)Nc5cccc6c5CN(C5CCC(=O)NC5=O)C6=O)CC4)cc3)ncc2C(F)(F)F)c2ccccc21 (centres undefined) ; what DC50 value has been reported?
68.7

====

tested on: Protein cereblon/Epidermal growth factor receptor (Homo sapiens), P00533+Q96SW2 [L858R,T790M,C797S]; experiment: PROTAC activity at CRBN/EGFR L858R/T790M/C797S mutant in human H1975-TM cells assessed as induction of EGFR degradation by measuring maximal efficacy at 300 nM incubated for 24 hrs by Western blot analysis relative to control; format: cell-based
Value kind: Emax

Example compounds with recorded Emax:
Request the reported Emax associated with CCS(=O)(=O)n1cc(-c2nc(Nc3ccc(N4CCN(CCCCCCCCC(=O)Nc5cccc6c5CN(C5CCC(=O)NC5=O)C6=O)CC4)cc3)ncc2C(F)(F)F)c2ccccc21 (centres undefined)
> 95%

I am curious: what Emax value has been reported for CCS(=O)(=O)n1cc(-c2nc(Nc3ccc(N4CCN(CCCC(=O)Nc5cccc6c5CN(C5CCC(=O)NC5=O)C6=O)CC4)cc3)ncc2C(F)(F)F)c2ccccc21 (centres undefined) ?
> 95%

Quick check: Emax of CCS(=O)(=O)n1cc(-c2nc(Nc3ccc(N4CCN(C(=O)CCCC(=O)Nc5cccc6c5CN(C5CCC(=O)NC5=O)C6=O)CC4)cc3)ncc2C(F)(F)F)c2ccccc21 (centres undefined) ?
80.4%

Now, please, on to the next compound.
Which Emax is reported for this compound? CCS(=O)(=O)n1cc(-c2nc(Nc3ccc(N4CCN(CCCCCCCCCCC(=O)Nc5cccc6c5CN(C5CCC(=O)NC5=O)C6=O)CC4)cc3)ncc2C(F)(F)F)c2ccccc21 (centres undefined)
77.3%

====

Assign Emax to each entry below.
system: Protein cereblon/Epidermal growth factor receptor (Homo sapiens), P00533+Q96SW2 [L858R,T790M,C797S]; assay: PROTAC activity at CRBN/EGFR L858R/T790M/C797S mutant in human H1975-TM cells assessed as induction of EGFR degradation by measuring maximal efficacy at 300 nM incubated for 24 hrs by Western blot analysis relative to control; assay type: cell-based
Answers are plain numbers, in %.

Example entries and their recorded answers appear below.
So what's the measured Emax for this one? CCS(=O)(=O)n1cc(-c2nc(Nc3ccc(N4CCN(C(=O)CCCCCC(=O)Nc5cccc6c5CN(C5CCC(=O)NC5=O)C6=O)CC4)cc3)ncc2C(F)(F)F)c2ccccc21 (configuration not stated)
80.1

Which Emax reading was recorded for the compound CCS(=O)(=O)n1cc(-c2nc(Nc3ccc(N4CCN(C(=O)CCC(=O)Nc5cccc6c5CN(C5CCC(=O)NC5=O)C6=O)CC4)cc3)ncc2C(F)(F)F)c2ccccc21 (configuration not stated) ?
88.4

What value of Emax has been reported for the following compound? CCS(=O)(=O)n1cc(-c2nc(Nc3ccc(N4CCN(C(=O)CCCCCCC(=O)Nc5cccc6c5CN(C5CCC(=O)NC5=O)C6=O)CC4)cc3)ncc2C(F)(F)F)c2ccccc21 (configuration not stated)
85.9

I would be grateful if you could share the reported Emax for CCS(=O)(=O)n1cc(-c2nc(Nc3ccc(N4CCN(CCCCCC(=O)Nc5cccc6c5CN(C5CCC(=O)NC5=O)C6=O)CC4)cc3)ncc2C(F)(F)F)c2ccccc21 (configuration not stated) .
94.6

Which Emax value is on record for CCS(=O)(=O)n1cc(-c2nc(Nc3ccc(N4CCN(CCCCCCCCCC(=O)Nc5cccc6c5CN(C5CCC(=O)NC5=O)C6=O)CC4)cc3)ncc2C(F)(F)F)c2ccccc21 (configuration not stated) ?
80.6

Hey, quick one: what's Emax for each of these?
1. CCS(=O)(=O)n1cc(-c2nc(Nc3ccc(N4CCN(CCC(=O)Nc5cccc6c5CN(C5CCC(=O)NC5=O)C6=O)CC4)cc3)ncc2C(F)(F)F)c2ccccc21 (configuration not stated)
2. CCS(=O)(=O)n1cc(-c2nc(Nc3ccc(N4CCN(CC(=O)Nc5cccc6c5CN(C5CCC(=O)NC5=O)C6=O)CC4)cc3)ncc2C(F)(F)F)c2ccccc21 (configuration not stated)
3. CCS(=O)(=O)n1cc(-c2nc(Nc3ccc(N4CCN(C(=O)CCCCC(=O)Nc5cccc6c5CN(C5CCC(=O)NC5=O)C6=O)CC4)cc3)ncc2C(F)(F)F)c2ccccc21 (configuration not stated)

94.7
89.3
48.3

Just for reference, ChEMBL document CHEMBL5543167 is where these values come from.
